test: in vivo; settings: Sprague-Dawley, rat, plasma, po, 30 mg/kg
MEASUREMENT_KIND: Cmax (ng/mL)
# unit: ng/mL | format: bare number

Q) Tell me the measured Cmax of `Cn1cc2c(n1)c(=O)n(-c1cccnc1C1CC1)c1cc(Cl)c(F)cc21` , please.
A) 3000

====

experiment: in vivo; conditions: Sprague-Dawley, rat, brain/plasma, po, 30 mg/kg
MEASUREMENT_KIND: Kp
Answer using only a numeral; do not append any unit.

Q) Tell me the measured Kp of `Cn1cc2c(n1)c(=O)n(-c1cccnc1C1CC1)c1cc(Cl)c(F)cc21` , please.
A) 2.23
